Cited source: patent US10227347B2

- TARGET OR SYSTEM: PI3Kα (Homo sapiens, UniProt P42336)
- Construct: purchased Invitrogen PV4788
- Sequence (P42336 whole entry, species assumed): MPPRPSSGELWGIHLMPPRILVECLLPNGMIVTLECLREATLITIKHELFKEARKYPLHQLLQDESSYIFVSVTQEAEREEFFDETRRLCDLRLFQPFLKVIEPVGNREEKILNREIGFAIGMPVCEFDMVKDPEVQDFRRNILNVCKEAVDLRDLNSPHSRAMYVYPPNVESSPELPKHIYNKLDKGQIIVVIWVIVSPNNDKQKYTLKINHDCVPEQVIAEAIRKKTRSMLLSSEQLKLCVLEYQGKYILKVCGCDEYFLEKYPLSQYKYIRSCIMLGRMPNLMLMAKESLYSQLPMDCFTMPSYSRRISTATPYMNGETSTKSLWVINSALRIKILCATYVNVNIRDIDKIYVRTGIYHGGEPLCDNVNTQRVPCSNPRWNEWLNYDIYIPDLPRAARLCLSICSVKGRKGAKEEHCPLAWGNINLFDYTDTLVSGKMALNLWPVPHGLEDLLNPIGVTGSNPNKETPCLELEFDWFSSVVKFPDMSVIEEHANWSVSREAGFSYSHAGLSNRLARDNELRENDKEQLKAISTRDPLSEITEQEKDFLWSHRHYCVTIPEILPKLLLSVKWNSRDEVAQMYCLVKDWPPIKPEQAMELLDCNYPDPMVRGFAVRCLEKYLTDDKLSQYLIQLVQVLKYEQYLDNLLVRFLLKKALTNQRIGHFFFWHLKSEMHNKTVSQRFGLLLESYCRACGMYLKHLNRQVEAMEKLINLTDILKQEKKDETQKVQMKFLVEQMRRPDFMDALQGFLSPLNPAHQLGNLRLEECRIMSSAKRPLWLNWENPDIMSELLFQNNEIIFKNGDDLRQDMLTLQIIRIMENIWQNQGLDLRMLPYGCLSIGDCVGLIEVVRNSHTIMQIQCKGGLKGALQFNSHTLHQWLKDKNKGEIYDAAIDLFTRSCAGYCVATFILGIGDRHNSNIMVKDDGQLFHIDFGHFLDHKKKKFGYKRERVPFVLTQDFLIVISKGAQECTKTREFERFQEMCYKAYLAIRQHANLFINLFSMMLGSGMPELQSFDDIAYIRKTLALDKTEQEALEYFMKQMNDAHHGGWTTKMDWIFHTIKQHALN
- Sequence (P27986 whole entry partner, species assumed): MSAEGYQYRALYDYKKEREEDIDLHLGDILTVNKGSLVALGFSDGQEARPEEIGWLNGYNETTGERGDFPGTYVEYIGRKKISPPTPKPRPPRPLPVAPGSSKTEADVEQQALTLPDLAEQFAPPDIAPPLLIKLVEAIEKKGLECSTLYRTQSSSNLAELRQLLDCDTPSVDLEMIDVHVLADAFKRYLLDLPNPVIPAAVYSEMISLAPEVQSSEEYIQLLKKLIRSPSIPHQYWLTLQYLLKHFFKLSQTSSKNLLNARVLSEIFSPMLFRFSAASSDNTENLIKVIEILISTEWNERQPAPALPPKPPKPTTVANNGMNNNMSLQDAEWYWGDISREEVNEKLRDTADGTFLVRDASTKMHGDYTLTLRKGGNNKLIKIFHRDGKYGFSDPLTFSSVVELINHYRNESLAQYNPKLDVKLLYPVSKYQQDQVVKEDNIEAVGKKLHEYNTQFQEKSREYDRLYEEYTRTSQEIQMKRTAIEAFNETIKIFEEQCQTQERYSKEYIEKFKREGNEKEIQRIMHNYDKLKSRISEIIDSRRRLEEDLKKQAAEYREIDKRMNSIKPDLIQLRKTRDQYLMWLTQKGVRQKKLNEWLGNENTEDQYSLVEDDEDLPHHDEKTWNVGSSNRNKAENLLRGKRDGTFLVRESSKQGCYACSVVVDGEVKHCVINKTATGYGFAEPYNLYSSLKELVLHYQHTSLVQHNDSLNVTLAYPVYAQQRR
- TEST PROTOCOL: PI3Kα activity inhibition (Kinase-Glo)
- Format: biochemical
- CONDITION LABEL: Table 1, graded; read-out: PI3Kα IC50
Each entry below lists one item and its recorded IC50 value.
MEASURED PARAMETER: IC50

> print(dat)
                                   compound  meas.value
1  CN(C)c1ccc(-c2nc(N3CCOCC3)c3nc(CN(C)c4ncc(C(=O)NO)cn4)n(C)c3n2)cc1 [CLJ-46]     > 10 µM
2  Cc1cscc1-c1nc(N2CCOCC2)c2nc(CN(C)c3ncc(C(=O)NO)cn3)n(C)c2n1 [CLJ-23]     > 10 µM
3  CCCCn1c(CN(C)c2ncc(C(=O)NO)cn2)nc2c(N3CCOCC3)nc(-c3ccc(OC)cc3)nc21 [CLJ-33]     > 10 µM
4  CCCCc1ccc(-c2nc(N3CCOCC3)c3nc(CN(C)c4ncc(C(=O)NO)cn4)n(C)c3n2)s1 [CLJ-21]     > 10 µM
5  CN(Cc1nc2c(N3CCOCC3)nc(-c3ccc(N)nc3)nc2n1C)c1ncc(C(=O)NO)cn1 [CLJ-7]     > 10 µM
6  COc1ccc(-c2nc(N3CCOCC3)c3nc(CN(C)c4ncc(C(=O)NO)cn4)n(C4CCCC4)c3n2)cn1 [CLJ-4]  1 to 10 µM
